For each record, write down the corresponding total protein half-life in vivo.
assay: total protein half-life in vivo (active degradation + dilution); higher = more stable protein; conditions: E. coli NCM3722 delta-clpP delta-lon delta-hslV; growth: N-lim chemostat; doubling time 6 h
One number for each entry, in h.

MKICLIDETGTGDGALSVLAARWGLEHDEDNLMALVLTPEHLELRKRDEPKLGGIFVDFVGGAMAHRRKFGGGRGEAVAKAVGIKGDYLPDVVDATAGLGRDAFVLASVGCRVRMLERNPVVAALLDDGLARGYADAEIGGWLQERLQLIHASSLTALTDITPRPQVVYLDPMFPHKQKSALVKKEMRVFQSLVGPDLDADGLLEPARLLATKRVVVKRPDYAPPLANVATPNAVVTKGHRFDIYAGTPV | 6.34
MSLPMLQVALDNQTMDSAYETTRLIAEEVDIIEVGTILCVGEGVRAVRDLKALYPHKIVLADAKIADAGKILSRMCFEANADWVTVICCADINTAKGALDVAKEFNGDVQIELTGYWTWEQAQQWRDAGIGQVVYHRSRDAQAAGVAWGEADITAIKRLSDMGFKVTVTGGLALEDLPLFKGIPIHVFIAGRSIRDAASPVEAARQFKRSIAELWG | 5.41
MHVKYLAGIVGAALLMAGCSSSNELSAAGQSVRIVDEQPGAECQLIGTATGKQSNWLSGQHGEEGGSMRGAANDLRNQAAAMGGNVIYGISSPSQGMLSSFVPTDSQIIGQVYKCPN [P0AF70] | 6.05
MTPTIELICGHRSIRHFTDEPISEAQREAIINSARATSSSSFLQCSSIIRITDKALREELVTLTGGQKHVAQAAEFWVFCADFNRHLQICPDAQLGLAEQLLLGVVDTAMMAQNALIAAESLGLGGVYIGGLRNNIEAVTKLLKLPQHVLPLFGLCLGWPADNPDLKPRLPASILVHENSYQPLDKGALAQYDEQLAEYYLTRGSNNRRDTWSDHIRRTIIKESRPFILDYLHKQGWATR | 4.82

Kindly give each listed record's total protein half-life in vivo.
1. MNKSQLIDKIAAGADISKAAAGRALDAIIASVTESLKEGDDVALVGFGTFAVKERAARTGRNPQTGKEITIAAAKVPSFRAGKALKDAVN [P0ACF4]
2. MTKPYVRLDKNDAAVLLVDHQAGLLSLVRDIEPDKFKNNVLALGDLAKYFNLPTILTTSFETGPNGPLVPELKAQFPDTPYIARPGNINAWDNEDFVKAVKATGKKQLIIAGVVTEVCVAFPALSAIEEGFDVFVVTDASGTFNEITRHSAWDRLSQAGAQLMTWFGVACELHRDWRNDIEGLATLFSNHIPDYRNLMTSYDTLTKQK
3. MIKWPWKVQESAHQTALPWQEALSIPLLTCLTEQEQSKLVTLAERFLQQKRLVPLQGFELDSLRSCRIALLFCLPVLELGLEWLDGFHEVLIYPAPFVVDDEWEDDIGLVHNQRIVQSGQSWQQGPIVLNWLDIQDSFDASGFNLIIHEVAHKLDTRNGDRASGVPFIPLREVAGWEHDLHAAMNNIQEEIELVGENAASIDAYAASDPAECFAVLSEYFFSAPELFAPRFPSLWQRFCQFYQQDPLQRLHHANDTDSFSATNVH

[7.01, 6.75, 4.48]
